Consider the following sequences and their measured apparent KD of MS2 coat protein readings.
test system: MS2 coat protein; test: apparent KD of MS2 coat protein; designed switch direction (-1 OFF switch, 1 ON switch): -1; higher = weaker reporter binding; details: input ligand: FMN 200 uM

sequence	apparent KD of MS2 coat protein
UUUAUAAUUUCAAUCUUCGCCAACAAACUUACGCUGGCCACAUGAGGAUCACCCAUGUUUUUUGUUCGUUUUAUUCU [Veorenxere] (Eterna round: R96, puzzle: Sensor v3, turn-off variant 2)	25 nM
AUCCGGCAUGUAGGAUAUGGAUCCGAUUAGGAUCCAGAAGGACAUGAGGAUCACCCAUGUACAUGUAAACAGUCAUCACCGGAC [salish99_ExNG1_r04_201] (Eterna round: R96, puzzle: Exclusion NG 1)	462 nM

* * *

Consider the following sequences and their measured apparent KD of MS2 coat protein readings.
system: MS2 coat protein; test: apparent KD of MS2 coat protein, switch OFF state (with FMN for OFF switches, without FMN for ON switches); designed switch direction (-1 OFF switch, 1 ON switch): -1; higher = weaker reporter binding; conditions: FMN input: 0 or 200 uM; Eterna round: R93 (includes R88 designs)

sequence	apparent KD of MS2 coat protein, nM
GGGCCACAUGAGGAUCACCCAUGUAAGGAUAUGCUAGGGAUGGAAAAAAUUACGCAAAGCAGAAGGUACUAAAG [Janelle Amethyst 18 Mod 9 - Jieux - Exclusion 1]	35.5
GGCACUGUAGGAUAUACAUGAACAAUUGGCAUCCUCAGUCCACAUGAGGAUCACCCAUGUAGAAGGAUAGAAAA [Besorees]	91.1
AAAAAGGUAGGAUAUACAUGAGGAUCACCCAUGUAAAUAAAUGGAGAAAAAAACAAUUGUAGAAGGGCCAAAAA [Ex3 Malc#8]	43.1
AAAAAGGGAGGAUAUACAUGAGGAUCACCCAUGUGAAGGACGAAAAAGAGUCUAAAGGGUAGAAGGCCCAAAAA [65%, Moding Exclusion3-cac2, 11]	43.4
AGUAUGCGAGGAUAUACAUGAGGAUCACCCAUGUGAGAGAUAAAAGUGAGAAAGAAAUGUAGAAGGCGCGUACA [JL Lego Mod 22]	43
AGCUAGCGAGGAUAUACGAACAUGUCAAAAGACGUGAAGGGACAUGAGGAUCACCCAUGUAGAAGGUGCUAGCA [JL 74% mod 7]	70.3
AAGAAAGCAGGAUAUACAAGAAAGAAAGAAAAGAAAAGAAAACAUGAGGAUCACCCAUGUAGAAGGGCUUAGAA [EteRNA is fun!]	23.1
AAAACACAUGAGGAUCACCCAUGUGAGGAUAUGCGAAAAAAAAAAAAAAAAAAAAAACGCAGAAGGCACAUAAA [jn_teaneck]	43.5
UUAGAACAUGAGGAUCACCCAUGUGAGGAUAUGCAAUACUAAAAUUAAGAUAAUUAUAGCAGAAGGCACGUAGU [JR_EXc001_Sub804]	40.9
AAGAAUCGAGGAUAUACAAAAUAAAAGAAAAGAAAGAAAGAACAUGAGGAUCACCCAUGUAGAAGGCGAAAGAA [Khaneferre Sobekhotep IV]	21.9
AAUUAGUGAGGAUAUACAUGAGGAUCACCCAUGUGUAAAAAAAAACGCAAAAAAGAAUGUAGAAGGCACUAAAA [Ex 3 Cold]	37.9
AAAAAACAUGAGGAUCACCCAUGUGAGGAUAUCGCUAGUCAGUCCCUAGAGUGAGUGAUGAGAAGGCACAUAAA [Brourd 613 Mod 7 - Jieux - Exclusion 1]	49.6
AACAUGUAAGGAUAUGAAAGAAAAGAAAAGAAAGAAAAGAAUCAGAAGGUACAUGAGGAUCACCCAUGUAAGAA [EteRNA is fun!]	26.7
CUCAAGUGAGGAUAUUUAAGAAAAGAAGAGAAAGAAAAGAAAAAGAAGGCACAUGAGGAUCACCCAUGUAAGAA [EteRNA is fun!]	32.8
AGAAUACAUGAGGAUCACCCAUGUAAGGAUAUGUGAAGAAAAAGAAAAGAAAAGAAACACAGAAGGUACAAAAG [EX 1 May 18]	65.8
UAAAGACAUGAGGAUCACCCAUGUGAGGAUAUAGGUGUAUGCAAAAAAAAGCAAAAAACUAGAAGGCACAGAAA [JR_Exc001_Sub304]	68.9
CAGUACUGAGGAUAUACAUGAGGAUCACCCAUGUAAAAAACCUACGAAAGUAGGAAAUGUAGAAGGCAGUACUG [Ex3: 803]	22.2
AAGGGACAUGAGGAUCACCCAUGUCAGGAUAUGCUAUGGAAAUAAAAAAUAAAACAUAGCAGAAGGGACAAAAA [Mat - Exclusion 1 - Eli mod - D33]	67.6
UCCAGACAUGAGGAUCACCCAUGUCAGGAUAUCUACAGAACCUCAUGUAAAAAACUGUAGAGAAGGGAUAUGAA [Design 97: Pseudoknot G]	16
AAAGGACAUGAGGAUCACCCAUGUGAGGAUAUCGGAAAAGGAAAAAAAAAAAAGAAGACGAGAAGGCACACCAA	55.6
AAAAAACAUGAGGAUCACCCAUGUGAGGAUAUGAUGCGAAUAAAGAAAGAAGAAAGCAUCAGAAGGCACACCAA [58%, Disencluded 3, 1]	52
AAAUGACUAGGAUAUACAUGAGGAUCACCCAUGUGUUAAAAUAAAUACACAAAAGAAAGUAGAAGGAGUCAAAA [Ex 3 May 15]	59.7
AUAGGUCGAGGAUAUACAUGAGGAUCACCCAUGUAAAUAAAUAAAUAAAACUCCACAAGUAGAAGGCGAAAUAA [JR_Exc003_Sub201]	22.6
AAGAAGAGAGGAUAUACAUGAGGAUCACCCAUGUAAAAGAAAGAAAAGGGAAAGAAAAGUAGAAGGCUCAAGAA [Aakheperrure Amenhotep II]	38.3
AUAGUAGGAGGAUAUACAUAGAUACAGAUACAUGUAGACGUACAUGAGGAUCACCCAUGUAGAAGGCCUAUGAA [Mat - Same state - Mayanna Mod - D149]	116
